# tested_system: PI3Kδ (Homo sapiens (Human))
# Sequence (O00329 whole entry, canonical isoform): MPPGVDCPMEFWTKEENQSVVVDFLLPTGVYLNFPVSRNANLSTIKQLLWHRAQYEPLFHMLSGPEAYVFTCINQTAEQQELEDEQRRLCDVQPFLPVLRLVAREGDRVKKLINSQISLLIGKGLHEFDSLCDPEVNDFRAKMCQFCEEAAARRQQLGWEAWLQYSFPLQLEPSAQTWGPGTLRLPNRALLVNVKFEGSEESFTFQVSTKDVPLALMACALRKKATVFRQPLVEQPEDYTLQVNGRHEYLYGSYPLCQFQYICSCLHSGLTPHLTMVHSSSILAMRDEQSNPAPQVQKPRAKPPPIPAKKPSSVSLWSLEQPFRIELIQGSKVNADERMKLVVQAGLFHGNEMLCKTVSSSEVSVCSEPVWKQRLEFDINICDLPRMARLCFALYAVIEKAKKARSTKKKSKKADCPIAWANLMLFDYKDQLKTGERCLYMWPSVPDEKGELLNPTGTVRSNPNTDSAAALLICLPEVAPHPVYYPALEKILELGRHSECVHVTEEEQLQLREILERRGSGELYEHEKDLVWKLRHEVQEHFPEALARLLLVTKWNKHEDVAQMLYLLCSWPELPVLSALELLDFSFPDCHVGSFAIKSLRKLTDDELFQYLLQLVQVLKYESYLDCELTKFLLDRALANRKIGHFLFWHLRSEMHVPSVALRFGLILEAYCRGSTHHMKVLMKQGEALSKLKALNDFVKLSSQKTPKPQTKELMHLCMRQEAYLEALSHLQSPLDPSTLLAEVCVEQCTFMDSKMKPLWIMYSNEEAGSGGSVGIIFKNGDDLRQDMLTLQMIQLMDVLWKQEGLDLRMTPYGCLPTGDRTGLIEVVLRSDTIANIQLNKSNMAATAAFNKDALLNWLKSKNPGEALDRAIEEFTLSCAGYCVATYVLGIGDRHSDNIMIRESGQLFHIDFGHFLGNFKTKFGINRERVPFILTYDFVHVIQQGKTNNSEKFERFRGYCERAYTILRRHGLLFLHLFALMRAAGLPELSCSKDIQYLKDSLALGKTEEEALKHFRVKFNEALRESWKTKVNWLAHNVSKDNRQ
# Sequence (P27986 whole entry partner, canonical isoform): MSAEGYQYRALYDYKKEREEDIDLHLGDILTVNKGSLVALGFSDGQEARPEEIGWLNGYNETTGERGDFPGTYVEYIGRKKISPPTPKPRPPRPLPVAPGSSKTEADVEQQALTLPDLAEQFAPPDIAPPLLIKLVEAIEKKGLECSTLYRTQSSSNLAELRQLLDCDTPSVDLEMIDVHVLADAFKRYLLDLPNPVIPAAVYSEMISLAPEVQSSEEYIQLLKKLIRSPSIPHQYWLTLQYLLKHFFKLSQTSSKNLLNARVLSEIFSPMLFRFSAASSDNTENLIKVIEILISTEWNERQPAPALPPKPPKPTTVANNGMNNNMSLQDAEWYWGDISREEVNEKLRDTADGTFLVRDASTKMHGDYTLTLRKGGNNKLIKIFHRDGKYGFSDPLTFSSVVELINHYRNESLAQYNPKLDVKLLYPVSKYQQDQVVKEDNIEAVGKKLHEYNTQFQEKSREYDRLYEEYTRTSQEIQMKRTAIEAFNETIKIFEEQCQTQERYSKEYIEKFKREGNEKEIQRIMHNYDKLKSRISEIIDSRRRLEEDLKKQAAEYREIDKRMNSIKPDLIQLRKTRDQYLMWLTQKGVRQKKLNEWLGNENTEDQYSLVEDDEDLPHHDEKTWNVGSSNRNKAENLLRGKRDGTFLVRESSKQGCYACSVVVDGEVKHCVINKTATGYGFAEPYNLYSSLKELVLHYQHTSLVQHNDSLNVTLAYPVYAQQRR
# assay_details: TR-FRET enzymatic assay of PI3K isoforms (PI3Kδ)
# assay_setup: 2×Km ATP, 2 μM PIP2, incubated for 30 minutes at 25° C., read-out: δ IC50
Each item that follows carries a reported IC50.
property_label: IC50 (nM)

[[record]]
compound = "CC(C)NC(=O)Nc1cc(-n2c([C@H](C)Nc3ncnc(N)c3C#N)nc3cccc(Cl)c3c2=O)ccc1F [Compound 77]"
readout_value = 27

[[record]]
compound = "CONC(=O)Nc1cccc(-n2c([C@H](C)Oc3ncnc4scnc34)nc3cccc(Cl)c3c2=O)c1 [Compound 153]"
readout_value = 4

[[record]]
compound = "CCNC(=O)Nc1cccc(-n2c([C@H](C)Nc3ncnc(N)c3C#N)nc3cccc(Br)c3c2=O)c1 [Compound 45]"
readout_value = 2

[[record]]
compound = "NC(=O)c1cccc(-n2c([C@@H](Nc3nc(N)nc(N)c3Cl)C3CC3)nc3c(F)ccc(Cl)c3c2=O)c1 [Compound 16]"
readout_value = 2

[[record]]
compound = "C[C@H](Nc1nc(N)nc(N)c1Cl)c1nc2c(Cl)ccc(Cl)c2c(=O)n1-c1cccc(C(N)=O)c1 [Compound 4]"
readout_value = 1

[[record]]
compound = "C[C@H](Oc1ncnc2scnc12)c1nc2cccc(Cl)c2c(=O)n1-c1cccc(NC(=O)NCCO)c1 [Compound 158]"
readout_value = 4

[[record]]
compound = "CCNC(=O)Nc1cccc(-n2c([C@H](C)Nc3ncnc(N)c3C#N)nc3cccc(C#N)c3c2=O)c1 [Compound 69]"
readout_value = 8

